# experimental_system: TRAF2 and NCK-interacting protein kinase (Homo sapiens, UniProt Q9UKE5)
endpoint_label: pKd
One number for each entry, as −log10 of the molar value.

Value lookup for pKd; key = `COc1cc(Nc2cc(-c3cccc(CC#N)c3)ccn2)ccc1N1CCN(C)CC1`
6.66

----------
What IC50 was measured for each of the following?
# experimental_system: Voltage-gated inwardly rectifying potassium channel KCNH2 (Homo sapiens)
# Sequence (Q12809 whole entry): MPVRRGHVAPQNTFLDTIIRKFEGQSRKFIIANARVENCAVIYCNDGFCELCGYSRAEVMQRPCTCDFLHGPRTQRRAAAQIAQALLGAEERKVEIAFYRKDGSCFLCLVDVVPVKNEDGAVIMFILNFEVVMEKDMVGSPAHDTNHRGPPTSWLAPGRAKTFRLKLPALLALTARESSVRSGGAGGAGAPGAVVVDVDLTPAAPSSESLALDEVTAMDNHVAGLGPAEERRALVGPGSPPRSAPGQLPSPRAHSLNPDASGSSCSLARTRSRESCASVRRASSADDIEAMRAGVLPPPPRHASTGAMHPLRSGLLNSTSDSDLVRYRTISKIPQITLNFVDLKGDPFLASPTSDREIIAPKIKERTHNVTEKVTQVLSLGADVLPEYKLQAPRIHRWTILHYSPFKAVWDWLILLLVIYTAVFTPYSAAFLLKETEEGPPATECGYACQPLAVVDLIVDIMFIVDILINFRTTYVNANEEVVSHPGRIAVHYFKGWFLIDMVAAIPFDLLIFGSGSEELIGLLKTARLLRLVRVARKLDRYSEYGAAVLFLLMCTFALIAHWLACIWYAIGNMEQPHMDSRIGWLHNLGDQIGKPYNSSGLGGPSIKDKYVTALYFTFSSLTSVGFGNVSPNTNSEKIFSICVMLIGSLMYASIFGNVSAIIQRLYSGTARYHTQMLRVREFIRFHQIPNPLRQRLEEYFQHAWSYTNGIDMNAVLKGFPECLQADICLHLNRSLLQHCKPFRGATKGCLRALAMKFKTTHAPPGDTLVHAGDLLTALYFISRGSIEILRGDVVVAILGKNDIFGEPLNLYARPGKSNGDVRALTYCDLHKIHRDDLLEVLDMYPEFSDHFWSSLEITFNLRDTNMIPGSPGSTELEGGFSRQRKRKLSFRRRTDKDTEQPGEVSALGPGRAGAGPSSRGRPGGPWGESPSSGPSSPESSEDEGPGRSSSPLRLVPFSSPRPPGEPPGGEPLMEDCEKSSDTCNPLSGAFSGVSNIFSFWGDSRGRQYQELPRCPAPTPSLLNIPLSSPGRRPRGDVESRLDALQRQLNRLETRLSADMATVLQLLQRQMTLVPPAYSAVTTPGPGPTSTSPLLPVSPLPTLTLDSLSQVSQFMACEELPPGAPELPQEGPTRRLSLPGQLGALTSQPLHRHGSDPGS
# method_notes: Inhibition of human ERG by patch clamp assay
Numbers only, in µM.

COc1cc(Nc2cc(-c3cccc(C#N)c3)ccn2)ccc1N1CCOCC1
7.7

Then there is this compound:
Item `COc1ccc(Cl)cc1-c1ccnc(Nc2ccc(N3CCOCC3)c(OC)c2)c1` with Voltage-gated inwardly rectifying potassium channel KCNH2 (Homo sapiens) - IC50?
20

----------
# Test system: HeLa
# method_notes: Cytotoxicity against wnt-inactivated human HeLa cells assessed as cell viability
# Assay type: functional, cell-based
What IC50 was measured for each of the following?
Give bare numbers, in µM.

See these solved cases before continuing.
COc1ccc(Cl)cc1-c1ccnc(Nc2ccc(CCN3CCOCC3)cc2)c1
3.7
COc1ccc(C#N)cc1-c1ccnc(Nc2ccc(N3CCOCC3)c(OC)c2)c1
6.8

Then there is this compound:
Value lookup for IC50; key = `COc1ccc(C#N)cc1-c1ccnc(Nc2ccc(N3CCC(N(C)C)CC3)c(F)c2)c1`
1.2

----------
What pIC50 was measured for each of the following?
# experimental_system: TRAF2 and NCK-interacting protein kinase (Homo sapiens, UniProt Q9UKE5)
# method_notes: Inhibition of TNIK-mediated TCF4/[…] transcription in human HCT116 cells by beta-lactamase reporter gene assay
# Type: cell-based, HCT-116
# Sequence (Q9UKE5 whole entry): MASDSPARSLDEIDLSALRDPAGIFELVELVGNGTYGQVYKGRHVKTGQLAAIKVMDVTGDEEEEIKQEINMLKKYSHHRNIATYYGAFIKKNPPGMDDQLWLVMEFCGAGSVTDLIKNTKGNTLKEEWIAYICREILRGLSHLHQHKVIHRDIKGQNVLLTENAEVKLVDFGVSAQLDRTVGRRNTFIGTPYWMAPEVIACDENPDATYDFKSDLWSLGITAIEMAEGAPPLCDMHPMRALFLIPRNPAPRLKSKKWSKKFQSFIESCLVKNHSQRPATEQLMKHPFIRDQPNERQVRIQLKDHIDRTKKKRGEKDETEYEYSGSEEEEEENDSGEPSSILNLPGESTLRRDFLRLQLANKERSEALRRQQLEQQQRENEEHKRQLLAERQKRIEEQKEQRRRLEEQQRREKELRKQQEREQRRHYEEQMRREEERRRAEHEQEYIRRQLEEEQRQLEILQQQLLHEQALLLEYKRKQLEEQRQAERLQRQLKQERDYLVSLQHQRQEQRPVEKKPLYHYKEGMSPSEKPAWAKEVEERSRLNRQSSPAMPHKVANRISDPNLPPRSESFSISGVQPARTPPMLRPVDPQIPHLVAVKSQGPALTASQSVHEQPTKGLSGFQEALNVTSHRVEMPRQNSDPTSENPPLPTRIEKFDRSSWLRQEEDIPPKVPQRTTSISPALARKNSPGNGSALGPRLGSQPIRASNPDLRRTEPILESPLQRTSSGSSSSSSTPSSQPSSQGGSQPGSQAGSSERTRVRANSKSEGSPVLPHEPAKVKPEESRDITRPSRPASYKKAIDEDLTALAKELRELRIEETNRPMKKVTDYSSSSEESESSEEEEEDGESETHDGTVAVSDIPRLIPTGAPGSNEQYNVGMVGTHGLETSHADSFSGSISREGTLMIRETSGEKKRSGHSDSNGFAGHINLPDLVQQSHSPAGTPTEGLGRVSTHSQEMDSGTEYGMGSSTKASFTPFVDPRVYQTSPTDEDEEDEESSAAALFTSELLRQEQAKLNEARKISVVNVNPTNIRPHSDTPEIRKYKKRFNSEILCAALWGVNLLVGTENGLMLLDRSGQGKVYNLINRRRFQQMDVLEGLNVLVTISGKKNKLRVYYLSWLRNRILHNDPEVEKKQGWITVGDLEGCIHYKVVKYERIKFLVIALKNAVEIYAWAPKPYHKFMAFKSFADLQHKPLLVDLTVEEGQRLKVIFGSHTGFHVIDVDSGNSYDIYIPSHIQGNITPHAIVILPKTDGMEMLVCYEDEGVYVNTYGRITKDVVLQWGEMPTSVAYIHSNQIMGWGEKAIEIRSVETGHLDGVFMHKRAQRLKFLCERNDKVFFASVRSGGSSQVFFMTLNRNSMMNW
One number for each entry, as −log10 of the molar value.

COc1ccc(Cl)cc1-c1ccnc(Nc2ccc(N3CCN(C)CC3)c(OC)c2)c1
5.10
COc1cc(Nc2ncc(Cl)c(-c3cccc(CC#N)c3)n2)ccc1N1CCN(C)CC1
6.46
COc1ccc(C#N)cc1-c1ccnc(Nc2ccc(N3CCOCC3)cc2)c1
4.59

Each of the following entries comes with a recorded value; kindly state pIC50 for each.
1. COc1cc(Nc2cc(-c3cccc(C#N)c3)ccn2)ccc1N1CCN(C)CC1
2. COc1ccc(C#N)cc1-c1ccnc(Nc2ccc(N3CCC(N(C)C)CC3)c(F)c2)c1

1: 4.57; 2: 5.51

----------
# experimental_system: TRAF2 and NCK-interacting protein kinase (Homo sapiens)
# method_notes: Inhibition of TNIK (unknown origin) by ADP glo luminescent assay
pIC50: −log10 of the molar value.
Classification field: class 1 = pIC50 at or over 7; class 0 = pIC50 under 7.

Use the examples below as a reference point.
COc1ccc(C#N)cc1-c1ccnc(Nc2ccc(N3CCOCC3)cc2)c1
class 1
COc1cc(Nc2cc(-c3cccc(C#N)c3)ccn2)ccc1N1CCOCC1
class 1
COc1cc(Nc2cc(-c3cccc(CC#N)c3)ccn2)ccc1N1CCN(C)CC1
class 0

Moving on to another molecule below.
Is pIC50 for `COc1ccc(Cl)cc1-c1ccnc(Nc2ccc(N3CCN(C)CC3)c(OC)c2)c1` at or above 7?
class 1

----------
# method_notes: Apparent permeability across basolateral to apical side in human Caco2 cells
# Format: ADME, cell-based
# particulars: Caco-2
endpoint_label: Papp B→A (×10⁻⁶ cm/s)
Give bare numbers, in ×10⁻⁶ cm/s.

See these solved cases before continuing.
COc1cc(Nc2cc(-c3cccc(C#N)c3)ccn2)ccc1N1CCN(C)CC1
14.2
COc1cc(Nc2ncc(Cl)c(-c3cccc(CC#N)c3)n2)ccc1N1CCN(C)CC1
7.7

Value lookup for Papp B→A; key = `COc1cc(Nc2cc(-c3cccc(CC#N)c3)ccn2)ccc1N1CCN(C)CC1`
19.1

----------
# experimental_system: TRAF2 and NCK-interacting protein kinase (Homo sapiens)
# method_notes: Ratio of IC50 for TNIK-mediated TCF4/[…] transcription in human HCT116 cells to IC50 for TNIK (unknown origin)
# Assay type: cell-based
# particulars: HCT-116
# Sequence (Q9UKE5 whole entry, looked up): as the sequence (Q9UKE5 whole entry) above
endpoint_label: Ratio IC50
Answers are plain numbers.

See these solved cases before continuing.
COc1cc(Nc2ncc(Cl)c(-c3cccc(CC#N)c3)n2)ccc1N1CCN(C)CC1
5.4
COc1ccc(C#N)cc1-c1ccnc(Nc2ccc(N3CCC(N(C)C)CC3)c(F)c2)c1
280
COc1ccc(C#N)cc1-c1ccnc(Nc2ccc(N3CCOCC3)cc2)c1
2400

Then there is this compound:
Item `COc1ccc(Cl)cc1-c1ccnc(Nc2ccc(N3CCN(C)CC3)c(OC)c2)c1` with TRAF2 and NCK-interacting protein kinase (Homo sapiens) - Ratio IC50?
2000

----------
What IC50 was measured for each of the following?
# experimental_system: TRAF2 and NCK-interacting protein kinase (Homo sapiens)
# method_notes: Inhibition of TNIK (unknown origin) by ADP glo luminescent assay
Give bare numbers, in nM.

See these solved cases before continuing.
COc1ccc(F)cc1-c1ccnc(Nc2ccc(N3CCOCC3)c(OC)c2)c1
118
COc1ccc(Cl)cc1-c1ccnc(Nc2ccc(CCN3CCOCC3)cc2)c1
20
COc1cc(Nc2cc(-c3cccc(C#N)c3)ccn2)ccc1N1CCN(C)CC1
6
COc1ccc(C#N)cc1-c1ccnc(Nc2ccc(N3CCN(C)CC3)c(OC)c2)c1
3
COc1ccc(C(F)(F)F)cc1-c1ccnc(Nc2ccc(N3CCOCC3)c(OC)c2)c1
275

Each of the following entries comes with a recorded value; kindly state IC50 for each.
1. COc1ccc(Cl)cc1-c1ccnc(Nc2ccc(N3CCOCC3)c(OC)c2)c1
2. COc1ccc(C#N)cc1-c1ccnc(Nc2ccc(N3CCC(N(C)C)CC3)c(F)c2)c1
3. COc1ccc(C#N)cc1-c1ccnc(Nc2ccc(N3CCN(C)CC3)cc2)c1
4. COc1cc(C#N)cc(-c2ccnc(Nc3ccc(N4CCOCC4)c(OC)c3)c2)c1

1. 41
2. 11
3. 5
4. 63
